Where these numbers come from: PubChem BioAssay (NCI)

Tested on: ACHN renal
Test: NCI-60 one-dose screen, 48 h (100 = growth as untreated, 0 = no growth, -100 = all killed)
Details: 10 µM unless noted
The panel holds about 83,000 compounds, 20% with a hit somewhere; the sample as a whole holds those more often.
Listed molecules paired with reported growth
Report as a plain number; the unit % is understood.

// below: answered molecules
> print(dat)
                                 smiles.str  quantitative.result
1  Cc1cc(O)c(=O)cc2c1C[C@H]1CC(C)(C)/C=C/C[C@]3(C)Oc4cc(=O)c(O)cc(C)c4C[C@H]3C[C@H](O)[C@@]1(C)O2                 6.64
2  COC(=O)[C@@]12CC=C(C)[C@]3(C[C@H](c4ccoc4)OC3=O)[C@H]1C=C[C@@H](O)[C@@]2(O)C(=O)OC                  105

Then there is this molecule:
Lookup: // map `CC1(C)CC[C@]23CC[C@]4(C)[C@H](CC[C@@H]5[C@@]6(C)C/C(=C/O)C(=O)C(C)(C)[C@@H]6CC[C@]54C)[C@H]2[C@H]1OC3` to recorded growth (system: ACHN renal)
Found: 110

====

Tested on: MDA-MB-231 breast
Assay: NCI-60 one-dose screen, 48 h (100 = growth as untreated, 0 = no growth, -100 = all killed)
Details: 10 µM unless noted
The panel holds about 83,000 compounds, 20% with a hit somewhere; the sample as a whole holds those more often.
Note to self: growth under 40% means t, ties and anything higher get f.

> print(dat)
                                   molecule  assigned.category
1  CC(=O)N1N=C(c2ccc(Nc3nc(Nc4ccc(F)cc4)nc(Nc4ccc(F)cc4)n3)cc2)CC1c1ccc(N(C)C)cc1 (centres undefined)                  f

Lookup: In plain terms, does `COC(=O)c1c(C)nc(C)c2c1C(=O)C=C(NCc1ccccc1)C2=O` come in under 40% for growth?
Found: f

Lookup: Param item: `COc1cc(-c2ccc(-c3ccc(C(=N)N)cc3)s2)cc(OC)c1OC`
Found: f

Lookup: Param item: `N#Cc1ccc(/C=C/c2cn(-c3ccccc3)nc2-c2cccc([N+](=O)[O-])c2)cc1`
Found: t

Lookup: Param item: `N=C(N)c1ccc(-c2ccc(-c3ccccc3)o2)o1`
Found: t

Lookup: Param item: `COC12C=C/C(=C(/C(=O)OCCSc3ccnn3C)C(=O)CCCCCCCCC3(OC)C=C/C(=C(/C(=O)OCCSc4ccnn4C)C(=O)CCCCCCCC1)O3)O2`
Found: t

====

System: CCRF-CEM leukemia
Test: NCI-60 one-dose screen, 48 h
Conditions: 10 µM unless noted
This is part of a sample that, as a whole, favours compounds with a hit. Of some 83,000 tested, about 20% had one in any assay. Active and inactive are the calls of the source. The calls were made as follows: active = growth percent below 10; inactive = the rest.
API: response.call in active, inactive

> print(dat)
                                   compound  experimental.system  assigned.category
1  CCN1C2CCC1/C(=C\c1ccccc1)C(=O)/C2=C/c1ccccc1    CCRF-CEM leukemia           inactive

Lookup: Short answer needed: outcome of this test for `CCOc1ncc([N+](=O)[O-])c(OCC)n1` ?
Found: inactive

Lookup: Param item: `Cc1c2ncccc2nc2[nH]c3ccc(OCCN(C)C)cc3c12`
Found: active

Lookup: Param item: `O=C(/C=C/c1ccco1)Nc1ncc(Cc2cc(Cl)ccc2Cl)s1`
Found: inactive

Lookup: Param item: `COc1cc([C@@H](CCO)C[C@H](C)c2ccc3ccccc3c2)cc(OC)c1OC`
Found: inactive

Lookup: Param item: CC(O)Cc1c[nH]c(=O)[nH]c1=O (stereo not drawn)
Found: inactive
